Target: T1, C-reactive protein (CRP) from human pleural fluid (Homo sapiens, UniProt P02741)
T1 construct: C-reactive protein, human, purified from pleural fluid; source: bought: LEE Biosolutions (from human pleural fluid)
T1 sequence (P02741 19-224): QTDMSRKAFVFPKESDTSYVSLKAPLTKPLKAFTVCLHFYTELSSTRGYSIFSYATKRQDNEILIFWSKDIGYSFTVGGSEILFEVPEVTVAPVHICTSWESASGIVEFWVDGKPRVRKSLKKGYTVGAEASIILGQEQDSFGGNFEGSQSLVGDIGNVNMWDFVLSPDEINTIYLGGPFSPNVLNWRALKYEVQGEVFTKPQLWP
Experiment: ELISA; phage screening ELISA: CRP 0.25 ug/well coated overnight at 4 C on MaxiSorp, saturated with 3% BSA-PBS; phages in culture supernatant (100 uL, not normalised) 2 h at room temperature; anti-M13 HRP, TMB, absorbance at 450 nm; ratio of the CRP signal to the BSA control, triplicates
Details: one partner purified
Exercise: for every item that follows, state its recorded Screening ELISA (CRP/BSA Signal).
Please give the numeric answer without any surrounding text.

Which Screening ELISA (CRP/BSA Signal) value is on record for anti-CRP nanobody C10 displayed on phage (VHH, C10 gave no soluble 6xHis-SpyTag construct; source: E. coli TG1 with M13K07 helper phage, phages in culture supernatant) VHH: EVQLQASGGGLVQAGGSLRLSCAASGRTFSNYGMGWFRQAPGKEREFVAAITSGGSTYYRDSVKGRFTISRDNAKNTVYLQMNSLKPDDTAVYYCAASRGVTAIWGSSYDYWGQRTLVTVSS ?
14.6

Now try anti-CRP nanobody A10 displayed on phage (VHH, source: E. coli TG1 with M13K07 helper phage, phages in culture supernatant) VHH: EVQLQASGGGLVQAGGSLRLSCVASRSILSLAVMGWYRQAPGKERELVASITSGGNTNYADVVKGRFIISRDNAKNTVNLQMNTLRPEDTAVYYCSAKSILTGPNHWRQETQVTVSS .
12.3

Now try anti-CRP nanobody A6 displayed on phage (VHH, source: E. coli TG1 with M13K07 helper phage, phages in culture supernatant) VHH: EVQLQASGGGLVRPGGSLRLSCAVSGGTLSNYAVGWFRRAPGNQRELVATFTSGGTTLYADSVKGRFTISRDNLKNTVYLQMNSLKPEDTAVYYCAAKPGRASSQATDYDAWGQGTQVTVSS .
11.8

Now try anti-CRP nanobody C1 displayed on phage (VHH, source: E. coli TG1 with M13K07 helper phage, phages in culture supernatant) VHH: DVQLQASGGGLVQPGGSLRLSCRAPRMVFRRNVMGWFRQAPGKQRELVAYITNDGVTKYTDSVKGRFTISRDNAENTMYLQMNNLKTEDTAVYYCNVRRVLGIAGYWGQGTQVTVSS .
12.5

Now try anti-CRP nanobody B9 displayed on phage (VHH, source: E. coli TG1 with M13K07 helper phage, phages in culture supernatant) VHH: EVQLQASGGGSVQAGGSLRLSCATSGIIFRNNIMTWYRQAPGKNRELVATITTGGSTNYSDSVKGRFTISRDNTKNTVYLQMSNLKPDDTGVYYCNARRNRFLTGSYGQGTQVTVSS .
14.6

Now try anti-CRP nanobody A12 displayed on phage (VHH, source: E. coli TG1 with M13K07 helper phage, phages in culture supernatant) VHH: EVQLQASGGGLVQAGGSLGLSCAASTRAFSTYAMGWFRQVPGKEREFVAAISSGGSTVYADSVKGRFTISRDNAKNTVYLQMNNLRPEDTAVYYCAARQGIVVRSPTRMDYWGQGTQVTVSS .
15.5

Now try anti-CRP nanobody E12 displayed on phage (VHH, source: E. coli TG1 with M13K07 helper phage, phages in culture supernatant) VHH: EVQLQASGGGLVQAGGSLRLSCAASRRPSSFKVMGWYRQAPGKQRELVARITSGGSTDYADSVKGRFTISRDNAKNTVYLQMNSLEPEDTAVYYCNAYRWGRDNWGQGTQVTVSS .
13.3
